Exercise: state measured CC50 for each of the compounds provided.
# MEASUREMENT NOTES: in vitro
# CONDITION NOTES: human
Counter-ions that a name gives are not always drawn.

{"columns": ["COMPOUND", "CC50"],
 "data": [
  ["O=C(c1cc(O)c(O)c(O)c1)c1ccc(O)c(O)c1O [Exifone]", "> 200 µM"]
]}

Now for another entry.
# query: CC50 of entry NC(CO)C(=O)NNCc1ccc(O)c(O)c1O (centres unmarked) [Benserazide hydrochloride]
> 200 µM

----------
Structures can show the parent of a compound that is named as a salt.
pIC50 tested on SARS-CoV 3CL^pro (Severe acute respiratory syndrome coronavirus, UniProt P0C6X7): recorded values
Answers are plain numbers, as −log10 of the molar value.

{"columns": ["COMPOUND", "RESULT TYPE", "MEAS VALUE"],
 "data": [
  ["O=C(c1cc(O)c(O)c(O)c1)c1ccc(O)c(O)c1O", "pIC50", 5.47]
]}

# query: pIC50 of entry NC(CO)C(=O)NNCc1ccc(O)c(O)c1O (centres unmarked) [Benserazide hydrochloride]
5.52

----------
Exercise: state measured IC50 for each of the compounds provided.
# SYSTEM: SARS-CoV-2 3CL^pro (Severe acute respiratory syndrome coronavirus 2, UniProt P0DTD1)
# MEASUREMENT NOTES: biochemical
Your reply should be a number followed by the unit it is expressed in.

The cases that follow already have their IC50 on record.
{"columns": ["COMPOUND", "IC50"],
 "data": [
  ["C[C@@H]1O[C@@H](OC[C@H]2O[C@@H](Oc3c(-c4cc(O)c(O)c(O)c4)oc4cc(O)cc(O)c4c3=O)[C@H](O)[C@@H](O)[C@@H]2O)[C@H](O)[C@H](O)[C@H]1O [Myricetin-3-O-rutinoside]", "0.85 µM"],
  ["COc1cc(-c2oc3cc(O)cc(O)c3c(=O)c2O[C@@H]2O[C@H](CO[C@@H]3O[C@@H](C)[C@H](O)[C@@H](O)[C@H]3O)[C@@H](O)[C@H](O)[C@H]2O)cc(O)c1O [Laricitrin 3-rutinoside]", "3.82 µM"]
]}

Could you report IC50 for every entry in the following list?
1. Oc1cc(O)c2c(c1)O[C@H](c1ccc(O)c(O)c1)[C@H](O)C2 [Epicatechin]
2. O=C(/C=C/c1ccc(O)cc1)c1ccc(O)cc1O

1. 3.3 µM
2. 73.9 µM

----------
# Tested on: SARS-CoV-2-S pseudovirus
# MEASUREMENT NOTES: microbe, parasite or virus in culture
# Format: cell-based
# CONDITION NOTES: Pseudovirus, read-out: IC50, pseudovirus activity inhibition
RESULT TYPE: IC50 (µM)
Give bare numbers, in µM.

# query: IC50 of entry O=C(c1cc(O)c(O)c(O)c1)c1ccc(O)c(O)c1O
76.5

----------
# SYSTEM: human ACE2 (Homo sapiens, UniProt Q9BYF1)
# Sequence (Q9BYF1 18-805): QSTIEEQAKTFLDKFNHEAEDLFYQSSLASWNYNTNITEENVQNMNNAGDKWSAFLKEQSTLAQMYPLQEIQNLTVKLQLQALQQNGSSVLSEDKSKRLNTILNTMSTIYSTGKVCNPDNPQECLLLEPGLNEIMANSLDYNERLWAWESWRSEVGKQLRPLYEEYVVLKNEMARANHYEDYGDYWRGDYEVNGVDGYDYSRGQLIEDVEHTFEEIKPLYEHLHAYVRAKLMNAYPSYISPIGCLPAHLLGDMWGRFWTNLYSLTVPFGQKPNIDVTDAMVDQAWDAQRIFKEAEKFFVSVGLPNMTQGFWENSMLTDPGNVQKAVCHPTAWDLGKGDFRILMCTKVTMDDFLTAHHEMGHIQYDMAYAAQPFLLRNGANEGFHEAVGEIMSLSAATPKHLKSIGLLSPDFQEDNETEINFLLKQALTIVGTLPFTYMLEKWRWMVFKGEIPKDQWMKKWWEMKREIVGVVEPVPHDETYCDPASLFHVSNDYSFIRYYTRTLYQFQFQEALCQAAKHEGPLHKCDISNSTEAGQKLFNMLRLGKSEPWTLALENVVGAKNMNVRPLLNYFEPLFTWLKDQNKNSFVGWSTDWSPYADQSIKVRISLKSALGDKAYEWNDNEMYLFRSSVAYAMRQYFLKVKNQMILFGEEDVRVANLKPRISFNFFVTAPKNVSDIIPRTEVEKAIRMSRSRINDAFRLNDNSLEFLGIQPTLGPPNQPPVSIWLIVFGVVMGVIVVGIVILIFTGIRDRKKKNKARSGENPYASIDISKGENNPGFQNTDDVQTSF
RESULT TYPE: Kd (µM)
One number for each entry, in µM.

# query: Kd of entry O=C(c1cc(O)c(O)c(O)c1)c1ccc(O)c(O)c1O
1.93

----------
# MEASUREMENT NOTES: Cell viability assay (CCK-8) on Vero-E6 cells
# CONDITION NOTES: African green monkey, Vero-E6 cells
RESULT TYPE: CC50 at 24 h

# query: CC50 at 24 h of entry O=C(c1cc(O)c(O)c(O)c1)c1ccc(O)c(O)c1O
> 100 µM

----------
# MEASUREMENT NOTES: Cell viability assay (CCK-8) on Vero-E6 cells
# CONDITION NOTES: African green monkey
Where a name gives a salt, the structure may show the parent alone.
RESULT TYPE: CC50 at 24 h

# query: CC50 at 24 h of entry NC(CO)C(=O)NNCc1ccc(O)c(O)c1O (stereo not shown) [Benserazide hydrochloride]
> 100 µM

Provenance of the data: paper PMC11900932
